Data credit: ChEMBL document CHEMBL2346581

target: Peptidyl-prolyl cis-trans isomerase FKBP5 (Homo sapiens, UniProt Q13451)
Sequence (Q13451 whole entry): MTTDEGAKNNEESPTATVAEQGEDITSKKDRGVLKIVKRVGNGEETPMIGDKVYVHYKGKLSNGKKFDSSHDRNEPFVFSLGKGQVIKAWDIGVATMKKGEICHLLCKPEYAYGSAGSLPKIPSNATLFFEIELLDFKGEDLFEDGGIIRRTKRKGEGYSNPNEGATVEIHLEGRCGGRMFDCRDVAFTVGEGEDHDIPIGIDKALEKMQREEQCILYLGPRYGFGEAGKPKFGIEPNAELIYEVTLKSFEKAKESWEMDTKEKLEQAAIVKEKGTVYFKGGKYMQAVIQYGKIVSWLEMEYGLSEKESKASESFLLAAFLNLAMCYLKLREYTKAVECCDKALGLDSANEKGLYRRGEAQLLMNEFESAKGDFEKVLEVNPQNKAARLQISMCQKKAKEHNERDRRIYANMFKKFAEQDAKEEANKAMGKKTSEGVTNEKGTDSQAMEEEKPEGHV
property-name: pKi
In simple prose, pKi is minus the logarithm base ten of a concentration in moles per litre.

Short answer for COc1ccc(CC[C@@H](OC(=O)C2CCCCN2S(=O)(=O)c2cc(Cl)c(O)c(Cl)c2)c2cccc(OCCN3CCOCC3)c2)cc1OC (some centres not stated) : pKi was 6.70

Note to self: pKi recorded for COc1ccc(OCCN2CC3CCCC(C2=O)N3S(=O)(=O)c2cc(Cl)cc(Cl)c2)cc1OC (configuration not stated) was 5.92

Form: molecule = COc1ccc(OCCN2CCC3CCCC(C2=O)N3C(=O)C(=O)c2cc(OC)c(OC)c(OC)c2)cc1OC (configuration not stated) ; pKi = 4.63

Entry C=CC[C@@H]1/C=C(\C)C[C@H](C)C[C@H](OC)[C@H]2O[C@@](O)(C(=O)C(=O)N3CCCC[C@H]3C(=O)O[C@H](/C(C)=C/[C@@H]3CC[C@@H](O)[C@H](OC)C3)[C@H](C)[C@@H](O)CC1=O)[C@H](C)C[C@@H]2OC [TACROLIMUS ANHYDROUS] ; pKi = 7.10

----------
Would you kindly list Ki for each of these molecules?
target: Peptidyl-prolyl cis-trans isomerase FKBP1A (Homo sapiens, UniProt P62942)
Sequence (P62942 whole entry): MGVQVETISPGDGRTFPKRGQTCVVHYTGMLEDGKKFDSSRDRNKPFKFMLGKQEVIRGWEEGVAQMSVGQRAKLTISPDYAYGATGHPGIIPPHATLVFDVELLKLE
Unit nM implied. Number only.

Entry `COc1cc2c(c(OC)c1)[C@]1(C)C3CCC[C@@H](C(=O)N1CC2)N3S(=O)(=O)c1cc(Cl)c(O)c(Cl)c1` , Peptidyl-prolyl cis-trans isomerase FKBP1A (Homo sapiens, UniProt P62942) data, Ki value: 2100

The recorded Ki with Peptidyl-prolyl cis-trans isomerase FKBP1A (Homo sapiens, UniProt P62942) for `COc1cc2c(c(OC)c1)[C@]1(C)C3CCC[C@@H](C(=O)N1CC2)N3C(=O)C(=O)[C@]1(C)CCCC[C@H]1C` was 2800

----------
So I've got a bunch of molecules here, and I need their Kd values.

Sample COc1ccc(OCCN2CCC3CCCC(C2=O)N3S(=O)(=O)c2ccc3[nH]c(=O)sc3c2)cc1OC (configuration not stated) , system: Peptidyl-prolyl cis-trans isomerase FKBP5 (Homo sapiens, UniProt Q13451). Its Kd is 0.36 µM

Kindly note: Peptidyl-prolyl cis-trans isomerase FKBP5 (Homo sapiens, UniProt Q13451), COc1ccc(OCCN2CC3CCCC(C2=O)N3S(=O)(=O)c2ccc3[nH]c(=O)sc3c2)cc1OC (configuration not stated) , Kd value reported: 10.5 µM
